Tested on: pathogenic bacteria
Test: MIC by microdilution broth method (NCCLS M7-A4), in vitro antibacterial activity
Assay type: cell-based
Conditions: Staphylococcus aureus, Organism A: Staphylococcus aureus OC4172; read-out: MIC
measurement-type: MIC (µg/mL)
Provide the reading as a plain figure in µg/mL.

Inquiry: Dear colleague, I am looking for the recorded MIC of the following molecule: NC/C(F)=C1/CCCN(c2c(F)cc3c(=O)c(C(=O)O)cn(C4CC4)c3c2OC(F)F)C1 [Compound 259]
Reply text: 0.03

Inquiry: Dear colleague, I am looking for the recorded MIC of the following molecule: COc1c(N2CC(=C(F)CN)C2)ccc2c(=O)c(C(=O)O)cn(C3CC3)c12 [Compound 274]
Reply text: 0.06

Inquiry: Dear colleague, I am looking for the recorded MIC of the following molecule: COc1c(N2CC/C(=C(/F)CN)C(C)C2)c(F)cc2c(=O)c(C(=O)O)cn(C3CC3)c12 (stereo not shown) [Compound 11]
Reply text: 0.03
